assay.overview: reduced SW480 viability measured with CellTiter-Glo, NPC library, primary (AID 1117343)
setup.conditions: CellTiter-Glo luminescence; at 20 µM (top of the series)
Quick reference for viability decrease (inhibition) among some compounds
The answer is to be given in %; state only the numeric part.

Recorded viability decrease (inhibition), per entry:
>  <compound>
O=C(O)c1cc(=O)c2ccccc2o1

>  <unit.abbrev>
%

>  <viability decrease (inhibition)>
6.8

$$$$
>  <compound>
CN(C)CCC(c1ccccc1)c1ccccn1 (stereo not drawn)

>  <unit.abbrev>
%

>  <viability decrease (inhibition)>
12.1

$$$$
>  <compound>
Nc1ccc(S(N)(=O)=O)cc1

>  <unit.abbrev>
%

>  <viability decrease (inhibition)>
6.8

$$$$
>  <compound>
NC(N)=NC(=O)Cc1c(Cl)cccc1Cl

>  <unit.abbrev>
%

>  <viability decrease (inhibition)>
34.1

$$$$
>  <compound>
CC(=O)[C@]1(O)Cc2c(O)c3c(c(O)c2[C@@H](O[C@H]2C[C@H](N)[C@H](O)[C@H](C)O2)C1)C(=O)c1ccccc1C3=O

>  <unit.abbrev>
%

>  <viability decrease (inhibition)>
84.7

$$$$
>  <compound>
Nc1nccs1

>  <unit.abbrev>
%

>  <viability decrease (inhibition)>
66.3

$$$$
>  <compound>
NC(N)=NS(=O)(=O)c1ccc(N)cc1

>  <unit.abbrev>
%

>  <viability decrease (inhibition)>
54.6

$$$$
>  <compound>
COc1cc(-c2ccc(=O)[nH]n2)ccc1OC(F)F

>  <unit.abbrev>
%

>  <viability decrease (inhibition)>
11.4

$$$$

Q: Given "C[C@H]1O[C@@H](n2cc(F)c(=O)[nH]c2=O)[C@H](O)[C@@H]1O" , state its recorded viability decrease (inhibition).
Result: 20.6

Q: Given "Cc1cc(=O)n(-c2ccccc2)n1C" , state its recorded viability decrease (inhibition).
Result: 4

Q: Given "CC1(C)O[C@H]2CC(=O)OC[C@]23[C@H]2CC[C@@]4(C)[C@H](c5ccoc5)OC(=O)[C@H]5O[C@]54[C@]2(C)C(=O)C[C@@H]13" , state its recorded viability decrease (inhibition).
Result: -12.1

Q: Given "Brc1c(NC2=NCCN2)ccc2nccnc12" , state its recorded viability decrease (inhibition).
Result: 7.7

Q: Given COc1ccccc1N1CCN(CC(O)COc2cccc3ccccc23)CC1 (stereo not drawn) , state its recorded viability decrease (inhibition).
Result: 92.1

Q: Given "COC(=O)C1=C(C)NC(C)=C(C(=O)O[C@@H]2CCCN(Cc3ccccc3)C2)[C@@H]1c1cccc([N+](=O)[O-])c1" , state its recorded viability decrease (inhibition).
Result: 131

---

assay.overview: growth inhibition, single agents and combos, HTB85, cell-based, BGB or cisplatin IC20 combos, synergistic combos for chromothripsis tumors (AID 1671453);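 also: cells exposed for 96 hours before readout; 0% = vehicle DMSO and 100% = high DMSO killing control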
setup.conditions: HTB85 osteosarcoma cells, drug combinations, measured here: with BGB IC20, at 5 µM, stronger effect = higher value
Respond with Y for inhibition values of -10% and above, N for values below.

>  <compound>
CCN1CCN(c2cc3c(cc2F)c(=O)c(C(=O)O)cn3C2CC2)CC1

>  <label>
Y

$$$$
>  <compound>
O=c1c(O)c(-c2ccc(O)c(O)c2)oc2cc(O)cc(O)c12

>  <label>
Y

$$$$
>  <compound>
NC(=O)NO

>  <label>
Y

$$$$
>  <compound>
O=C(O)P(=O)(O)O

>  <label>
N

$$$$

Q: Does the reported inhibition for CC(N)C12CC3CC(CC(C3)C1)C2 (centres undefined) fall at or above the -10% mark?
Result: N
